I'd be grateful if you could share measured melting point for these entries.

CCOC(=O)N1CCC(=C2c3ccccc3CCc3sccc32)CC1 :: 110 to 113 °C
CCOC(=O)N1CCC(=C2c3ccccc3CCc3sc(C=CC(=O)O)cc32)CC1 :: 228 °C (dec.)
CCOC(=O)N1CCC(=C2c3ccccc3CCc3sc(C=O)cc32)CC1 :: 146 to 149 °C
O=C(O)CCc1cc2c(s1)C=Cc1ccccc1C2=C1CCNCC1 :: 254 °C (dec.)

// input: 4 molecules below; output: melting point for each
1. O=C(O)C=Cc1cc2c(s1)CCc1ccccc1C2=C1CCNCC1
2. CC(C)(C)OC(=O)N1CCC(=C2c3ccccc3C=Cc3sc(CCC(=O)O)cc32)CC1
3. CC(C)(C)OC(=O)N1CCC(=C2c3ccccc3CCc3sc(C=CC(=O)O)cc32)CC1
4. CN1CCC(=C2c3ccccc3CCc3sc(Br)cc32)CC1

a:
["269 to 272 °C (dec.)", "172 °C (dec.)", "186 °C (dec.)", "141 to 142 °C"]

q: # get_value(readout='melting point', item= CCOC(=O)C=Cc1cc2c(s1)CCc1ccccc1C2=C1CCN(C(=O)OCC)CC1 )
a: 90 to 93 °C
